The values you see were collected from the supplement of paper PMC9112550.

What shrunken log2 fold change was measured for each of the following?
- Test system: Escherichia coli TOP10
- ASSAY_INFO: shrunken log2 fold change of peptide-encoding DNA abundance (4.5 h post-induction vs induction); higher = less antimicrobial activity (less host growth inhibition)
- REPORTED_CONDITIONS: time post-induction: 4.5 h; library: site-saturation at positions 5, 18, 19, 20

Some solved cases for reference:
RRIRDRPPRLPRPRPRPMHNPRP
-0.696
RRIRARPPRLPRPRPRPIMRPRP
0.491
RRIRWRPPRLPRPRPRPGFWPRP
0.494

// for each sequence below, give its shrunken log2 fold change
1. RRIRSRPPRLPRPRPRPPPFPRP
2. RRIRDRPPRLPRPRPRPTQDPRP
3. RRIRMRPPRLPRPRPRPGRDPRP
4. RRIRNRPPRLPRPRPRPETSPRP
5. RRIRMRPPRLPRPRPRPCDLPRP
6. RRIRARPPRLPRPRPRPADHPRP
7. RRIRTRPPRLPRPRPRPPYVPRP

1. 0.449
2. 1.27
3. 1.4
4. 0.24
5. 0.041
6. 0.0196
7. -0.212

----------
- System: Escherichia coli TOP10
- ASSAY_INFO: shrunken log2 fold change of peptide-encoding DNA abundance (4.5 h post-induction vs induction); higher = less antimicrobial activity (less host growth inhibition)
- REPORTED_CONDITIONS: time post-induction: 4.5 h; library: site-saturation at positions 5, 18, 19, 20
Param threshold (-0.04) applies to shrunken log2 fold change; output T when value >= threshold, F when value < threshold.

RRIRMRPPRLPRPRPRPSFWPRP
T
RRIRDRPPRLPRPRPRPYGEPRP
F
RRIRYRPPRLPRPRPRPWRWPRP
T
RRIRYRPPRLPRPRPRPKHKPRP
F
RRIRCRPPRLPRPRPRPYHWPRP
F
RRIRQRPPRLPRPRPRPESRPRP
T
RRIRSRPPRLPRPRPRPVSWPRP
T
RRIRLRPPRLPRPRPRPYGMPRP
T
RRIRCRPPRLPRPRPRPTHVPRP
T
RRIRPRPPRLPRPRPRPIKFPRP
F

Is shrunken log2 fold change at least -0.04? Consider RRIRIRPPRLPRPRPRPCAQPRP F

Textbook exercise: given the entry RRIRCRPPRLPRPRPRPKIWPRP , state whether its shrunken log2 fold change is greater than or equal to -0.04. T

Exam item: decide whether the reported shrunken log2 fold change for RRIRERPPRLPRPRPRPVNSPRP is at least -0.04. T

Tell me whether shrunken log2 fold change is at least -0.04 here: RRIRIRPPRLPRPRPRPLMSPRP F

Threshold query (shrunken log2 fold change >= -0.04) on RRIRSRPPRLPRPRPRPNAEPRP T

----------
- Tested on: Escherichia coli TOP10
- ASSAY_INFO: shrunken log2 fold change of peptide-encoding DNA abundance (4.5 h post-induction vs induction); higher = less antimicrobial activity (less host growth inhibition)
- REPORTED_CONDITIONS: time post-induction: 4.5 h; library: site-saturation at positions 5, 18, 19, 20
# cutoff -0.04 applies to shrunken log2 fold change; >= gives MET, < gives NOT MET

Worked cases, answers included:
RRIRIRPPRLPRPRPRPTFQPRP
MET
RRIRGRPPRLPRPRPRPLMTPRP
MET
RRIRPRPPRLPRPRPRPYTYPRP
NOT MET
RRIRYRPPRLPRPRPRPEPHPRP
NOT MET
RRIRPRPPRLPRPRPRPGNRPRP
MET
RRIRARPPRLPRPRPRPMCRPRP
MET
RRIRCRPPRLPRPRPRPIHSPRP
NOT MET
RRIRPRPPRLPRPRPRPKETPRP
MET

Please indicate if the recorded shrunken log2 fold change for RRIRSRPPRLPRPRPRPIHFPRP meets or exceeds -0.04. NOT MET

# bool: shrunken log2 fold change of RRIRWRPPRLPRPRPRPAKEPRP >= -0.04 MET

Is reported shrunken log2 fold change greater than or equal to -0.04 here: RRIRERPPRLPRPRPRPKYQPRP NOT MET

Identify whether the reported shrunken log2 fold change of the following sequence is -0.04 or greater: RRIRPRPPRLPRPRPRPMYEPRP NOT MET

I'd appreciate it if you could say whether RRIRCRPPRLPRPRPRPDNHPRP has shrunken log2 fold change at least equal to -0.04. NOT MET

Has RRIRIRPPRLPRPRPRPTAFPRP a recorded shrunken log2 fold change greater than or equal to -0.04? NOT MET

Could you please find out whether RRIRERPPRLPRPRPRPANWPRP has shrunken log2 fold change that meets -0.04 or exceeds it? MET

----------
- Test system: Escherichia coli TOP10
- ASSAY_INFO: shrunken log2 fold change of peptide-encoding DNA abundance (4.5 h post-induction vs induction); higher = less antimicrobial activity (less host growth inhibition)
- REPORTED_CONDITIONS: time post-induction: 4.5 h; library: site-saturation at positions 5, 18, 19, 20
PROPERTY: shrunken log2 fold change
One number for each entry.

RRIRTRPPRLPRPRPRPHCCPRP
0.142
RRIRKRPPRLPRPRPRPPIGPRP
0.407
RRIRIRPPRLPRPRPRPNFWPRP
-0.0359

Please give shrunken log2 fold change for each item listed below.
1. RRIRMRPPRLPRPRPRPGMRPRP
2. RRIRWRPPRLPRPRPRPPRHPRP
3. RRIRCRPPRLPRPRPRPQPAPRP
4. RRIRPRPPRLPRPRPRPGMAPRP
5. RRIRERPPRLPRPRPRPLITPRP
6. RRIRDRPPRLPRPRPRPLNLPRP
7. RRIRNRPPRLPRPRPRPQYSPRP

[1.54, 0.608, 0.632, 0.204, -0.412, -0.324, -0.232]

----------
- System: Escherichia coli TOP10
- ASSAY_INFO: shrunken log2 fold change of peptide-encoding DNA abundance (4.5 h post-induction vs induction); higher = less antimicrobial activity (less host growth inhibition)
- REPORTED_CONDITIONS: time post-induction: 4.5 h; library: site-saturation at positions 5, 18, 19, 20
PROPERTY: shrunken log2 fold change
Numbers only.

RRIRWRPPRLPRPRPRPYTLPRP
-0.681
RRIRKRPPRLPRPRPRPLAHPRP
0.551
RRIRLRPPRLPRPRPRPYGHPRP
2.49
RRIRHRPPRLPRPRPRPHHSPRP
-0.147
RRIRKRPPRLPRPRPRPEFIPRP
0.146

Hi, could you look up shrunken log2 fold change for each item in my list?
1. RRIRPRPPRLPRPRPRPEVNPRP
2. RRIRLRPPRLPRPRPRPARAPRP
3. RRIRLRPPRLPRPRPRPGRKPRP

[0.188, 0.268, 0.0459]

Fill in shrunken log2 fold change for each of the 6 sequences listed.
1. RRIRLRPPRLPRPRPRPSYWPRP
2. RRIRLRPPRLPRPRPRPTWYPRP
3. RRIRRRPPRLPRPRPRPCGFPRP
4. RRIRTRPPRLPRPRPRPVLTPRP
5. RRIRTRPPRLPRPRPRPNWIPRP
6. RRIRFRPPRLPRPRPRPYGVPRP

-0.651
-0.221
0.265
1.21
-0.289
-0.00783

Value sought for every listed sequence: shrunken log2 fold change.
1. RRIRRRPPRLPRPRPRPTITPRP
2. RRIRQRPPRLPRPRPRPYKVPRP
3. RRIRCRPPRLPRPRPRPEVGPRP
4. RRIRDRPPRLPRPRPRPLFVPRP
5. RRIRYRPPRLPRPRPRPVPDPRP
6. RRIRIRPPRLPRPRPRPWACPRP
7. RRIRTRPPRLPRPRPRPHQTPRP
8. RRIRIRPPRLPRPRPRPAWVPRP

0.0541
0.000796
0.555
-0.168
-0.0838
-0.406
-0.0425
0.0748

----------
Assignment: determine reported shrunken log2 fold change for the given sequences.
- Test system: Escherichia coli TOP10;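 also: peptides expressed intracellularly from a pBAD plasmid library in pooled LB shake-flask culture, induced with 0.3% L-arabinose, DNA abundance read by NGS, three biological replicates, DESeq2 with apeglm shrinkage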
- ASSAY_INFO: shrunken log2 fold change of peptide-encoding DNA abundance (4.5 h post-induction vs induction); higher = less antimicrobial activity (less host growth inhibition)
- REPORTED_CONDITIONS: time post-induction: 4.5 h; library: site-saturation at positions 5, 18, 19, 20
Give bare numbers.

Previously resolved entries follow.
RRIRPRPPRLPRPRPRPTWLPRP
0.522
RRIRSRPPRLPRPRPRPVVLPRP
0.124
RRIRQRPPRLPRPRPRPLPCPRP
-0.00831
RRIRYRPPRLPRPRPRPYLVPRP
-0.536
RRIRKRPPRLPRPRPRPFTIPRP
0.0665

Batch request: shrunken log2 fold change for each of the following sequences.
1. RRIRGRPPRLPRPRPRPCWWPRP
2. RRIRKRPPRLPRPRPRPGNNPRP
3. RRIRFRPPRLPRPRPRPFTEPRP
4. RRIRLRPPRLPRPRPRPYHIPRP
5. RRIRLRPPRLPRPRPRPRFRPRP

1. 0.554
2. -0.107
3. -0.869
4. -0.713
5. 0.117

Below are 6 sequences. Give each one its shrunken log2 fold change.
1. RRIRKRPPRLPRPRPRPTLRPRP
2. RRIRFRPPRLPRPRPRPGCVPRP
3. RRIRSRPPRLPRPRPRPPIAPRP
4. RRIRTRPPRLPRPRPRPTCCPRP
5. RRIRLRPPRLPRPRPRPTNKPRP
6. RRIRRRPPRLPRPRPRPMSEPRP

[1.01, 0.15, 2.36, -0.0411, -0.264, 0.0166]
